assayTarget: DLL4 (human, UniProt Q9NR61)
Sequence (Q9NR61 27-524): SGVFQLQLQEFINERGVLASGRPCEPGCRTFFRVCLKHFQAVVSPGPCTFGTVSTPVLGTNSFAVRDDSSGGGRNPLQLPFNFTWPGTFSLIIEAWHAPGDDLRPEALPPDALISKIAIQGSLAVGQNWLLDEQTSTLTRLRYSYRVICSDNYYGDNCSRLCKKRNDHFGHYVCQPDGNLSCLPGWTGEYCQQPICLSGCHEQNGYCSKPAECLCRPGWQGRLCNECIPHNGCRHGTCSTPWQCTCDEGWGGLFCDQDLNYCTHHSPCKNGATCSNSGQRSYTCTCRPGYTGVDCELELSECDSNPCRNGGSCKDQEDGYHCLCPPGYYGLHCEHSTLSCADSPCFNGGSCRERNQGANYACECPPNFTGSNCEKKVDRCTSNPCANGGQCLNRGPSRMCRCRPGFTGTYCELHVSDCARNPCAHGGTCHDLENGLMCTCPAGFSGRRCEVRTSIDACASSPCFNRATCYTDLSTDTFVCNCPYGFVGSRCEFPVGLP
assayName: ELISA
pEC50: −log10 of the molar value.
Label yes when pEC50 is at or above 9; anything below gets no.

>  <binder>
DVD498 DLL4 arm (antibody, V domains shown, DVD-Ig inner) VH: EVQLQQSGPELVKPGASVKMSCKASGYTFTSYVINWVKQKPGQGLEWIGLINPYNDGTKYNEKFKVKATLTSDKSSSTAYMELSSLTSEDSAVYYCASYYYGSRYYFDYWGQGTTLTVSS VL: DIQMTQSSSYLSVSLGGRVTITCKASDHINNWLAWYQQKPGNAPRLLISGATSLETGVPSRFSGSGSGKDYTLSITSLQTEDVATYYCQQYWSIPLTFGAGTKLELKR

>  <category>
yes

$$$$
>  <binder>
DVD448 DLL4 arm (antibody, V domains shown, DVD-Ig inner) VH: QVQLVQSGAEVKKPGASVKISCKASGYSFTAYYIHWVKQAPGQGLEWIGYISSYNGATNYNQKFKGRVTFTTDTSTSTAYMELRSLRSDDTAVYYCARDYDYDVGMDYWGQGTLVTVSS VL: DIVMTQSPDSLAVSLGERATISCRASESVDNYGISFMKWFQQKPGQPPKLLIYAASNQGSGVPDRFSGSGSGTDFTLTISSLQAEDVAVYYCQQSKEVPWTFGGGTKVEIKR

>  <category>
yes

$$$$
>  <binder>
DVD447 DLL4 arm (antibody, V domains shown, DVD-Ig outer) VH: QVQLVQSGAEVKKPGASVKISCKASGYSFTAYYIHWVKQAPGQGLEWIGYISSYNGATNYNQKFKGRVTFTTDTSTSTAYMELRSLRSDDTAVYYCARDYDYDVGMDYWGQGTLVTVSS VL: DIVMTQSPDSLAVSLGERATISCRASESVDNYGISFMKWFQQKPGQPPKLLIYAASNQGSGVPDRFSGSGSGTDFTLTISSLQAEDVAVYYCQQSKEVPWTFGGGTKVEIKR

>  <category>
yes

$$$$
>  <binder>
DVD459 DLL4 arm (antibody, V domains shown, DVD-Ig outer) VH: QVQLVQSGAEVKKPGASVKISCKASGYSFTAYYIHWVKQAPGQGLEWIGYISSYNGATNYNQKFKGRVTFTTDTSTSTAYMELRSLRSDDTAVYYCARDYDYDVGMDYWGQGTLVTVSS VL: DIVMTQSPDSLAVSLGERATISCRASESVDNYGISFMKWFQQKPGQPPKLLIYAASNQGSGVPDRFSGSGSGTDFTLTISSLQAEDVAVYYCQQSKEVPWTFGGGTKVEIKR

>  <category>
yes

$$$$
>  <binder>
DVD445 DLL4 arm (antibody, V domains shown, DVD-Ig outer) VH: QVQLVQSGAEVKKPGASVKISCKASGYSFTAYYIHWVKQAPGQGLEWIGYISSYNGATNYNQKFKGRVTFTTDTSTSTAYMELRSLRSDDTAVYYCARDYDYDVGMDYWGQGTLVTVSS VL: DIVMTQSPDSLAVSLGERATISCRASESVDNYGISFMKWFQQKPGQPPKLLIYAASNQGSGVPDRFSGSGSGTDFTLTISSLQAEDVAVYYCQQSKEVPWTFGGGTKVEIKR

>  <category>
yes

$$$$
>  <binder>
DVD510 DLL4 arm (antibody, V domains shown, DVD-Ig inner) VH: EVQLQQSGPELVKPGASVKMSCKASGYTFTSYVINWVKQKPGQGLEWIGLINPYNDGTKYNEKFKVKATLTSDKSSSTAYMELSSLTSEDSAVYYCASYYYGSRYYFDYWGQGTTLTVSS VL: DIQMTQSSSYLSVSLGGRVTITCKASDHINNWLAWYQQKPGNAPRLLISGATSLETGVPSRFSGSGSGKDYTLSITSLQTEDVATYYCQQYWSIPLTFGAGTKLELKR

>  <category>
yes

$$$$
>  <binder>
DVD499 DLL4 arm (antibody, V domains shown, DVD-Ig outer) VH: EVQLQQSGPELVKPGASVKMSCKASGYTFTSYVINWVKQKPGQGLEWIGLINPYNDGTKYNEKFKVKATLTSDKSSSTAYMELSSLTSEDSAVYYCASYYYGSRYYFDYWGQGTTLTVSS VL: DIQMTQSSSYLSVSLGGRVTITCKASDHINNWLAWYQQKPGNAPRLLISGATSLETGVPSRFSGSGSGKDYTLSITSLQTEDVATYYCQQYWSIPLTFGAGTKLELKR

>  <category>
yes

$$$$
>  <binder>
DVD516 DLL4 arm (antibody, V domains shown, DVD-Ig inner) VH: EVQLQQSGPELEKPGASVKISCKASGYSFTGYNMNWVKQSNGKSLEWIGNIDPYFGGTNYNQKFKGKATLTVDKSSSTAYMQLKSLTSEDSAVYYCARNYDYDGGCFDYWGQGTTLTVSS VL: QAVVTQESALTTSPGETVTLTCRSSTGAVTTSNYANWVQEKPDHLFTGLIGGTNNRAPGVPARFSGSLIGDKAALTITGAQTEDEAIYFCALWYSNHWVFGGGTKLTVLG

>  <category>
no

$$$$
>  <binder>
DVD446 DLL4 arm (antibody, V domains shown, DVD-Ig inner) VH: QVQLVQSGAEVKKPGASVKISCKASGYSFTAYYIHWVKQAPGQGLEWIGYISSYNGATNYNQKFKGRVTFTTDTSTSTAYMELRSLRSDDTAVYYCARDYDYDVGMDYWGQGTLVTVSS VL: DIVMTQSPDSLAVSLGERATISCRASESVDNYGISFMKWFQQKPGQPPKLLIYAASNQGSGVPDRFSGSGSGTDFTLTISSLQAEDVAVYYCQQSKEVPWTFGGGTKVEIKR

>  <category>
no

$$$$

Source of measurements: patent US9029508
